system: SK-LU-1; assay: relative viability (nuclei count vs DMSO), 5 days (fraction); higher = more cells survive; conditions: first compound 0.2 µM

Molecule: CCNC(=O)c1noc(-c2cc(C(C)C)c(O)cc2O)c1-c1ccc(CN2CCOCC2)cc1 [Luminespib] + Nc1ncn([C@H]2C[C@H](O)[C@@H](CO)O2)c(=O)n1 [Decitabine] (partner 2 µM)
relative viability: 0.216
//
Molecule: CN1CCN(CCOc2cc(OC3CCOCC3)c3c(Nc4c(Cl)ccc5c4OCO5)ncnc3c2)CC1 [Saracatinib] + N=C(N)NC(=N)NCCc1ccccc1 [Phenformin] (partner 250 µM)
relative viability: 0.351
//
Molecule: CN1CCN(CCOc2cc(OC3CCOCC3)c3c(Nc4c(Cl)ccc5c4OCO5)ncnc3c2)CC1 [Saracatinib] + CC(C)C[C@H](NC(=O)[C@H](Cc1ccccc1)NC(=O)c1cnccn1)B(O)O [Bortezomib] (partner 0.002 µM)
relative viability: 1.19
//
Molecule: CCNC(=O)c1noc(-c2cc(C(C)C)c(O)cc2O)c1-c1ccc(CN2CCOCC2)cc1 [Luminespib] + Cc1nc(NC(=O)N2CCC[C@H]2C(N)=O)sc1-c1ccnc(C(C)(C)C(F)(F)F)c1 [Alpelisib] (partner 2 µM)
relative viability: 0.161
//
Molecule: Cc1csc(=NC2CCCCC2)n1/N=C/c1ccc(O)c(O)c1O [MIM1] + C[C@@H](Oc1cc(-c2cnn(C3CCNCC3)c2)cnc1N)c1c(Cl)ccc(F)c1Cl [Crizotinib] (partner 1 µM)
relative viability: 1.02

###

test system: LC-2-ad; test: relative viability (nuclei count vs DMSO), 5 days (fraction); higher = more cells survive; conditions: first compound 0.06325 µM

Compound: CCNC(=O)c1noc(-c2cc(C(C)C)c(O)cc2O)c1-c1ccc(CN2CCOCC2)cc1 [Luminespib] + COc1cc2c(Oc3ccc(NC(=O)C4(C(=O)Nc5ccc(F)cc5)CC4)cc3F)ccnc2cc1OCCCN1CCOCC1 [Foretinib] (partner 0.25 µM)
relative viability: 0.321
--
Compound: CCNC(=O)c1noc(-c2cc(C(C)C)c(O)cc2O)c1-c1ccc(CN2CCOCC2)cc1 [Luminespib] + CC(=O)c1c(C)c2cnc(Nc3ccc(N4CCNCC4)cn3)nc2n(C2CCCC2)c1=O [Palbociclib] (partner 0.5 µM)
relative viability: 0.478
--
Compound: CCNC(=O)c1noc(-c2cc(C(C)C)c(O)cc2O)c1-c1ccc(CN2CCOCC2)cc1 [Luminespib] + CC(=O)Nc1cccc(-n2c(=O)n(C3CC3)c(=O)c3c(Nc4ccc(I)cc4F)n(C)c(=O)c(C)c32)c1 [Trametinib] (partner 0.02 µM)
relative viability: 0.889
--
Compound: CCNC(=O)c1noc(-c2cc(C(C)C)c(O)cc2O)c1-c1ccc(CN2CCOCC2)cc1 [Luminespib] + NC(=O)Nc1cc(-c2cccc(F)c2)sc1C(=O)N[C@H]1CCCNC1 [AZD7762] (partner 0.2 µM)
relative viability: 0.146

###

# key: entry, value: relative viability
tested on: LK-2; assay: relative viability (nuclei count vs DMSO), 5 days (fraction); higher = more cells survive; details: first compound 0.01 µM

Molecule: Cc1cn(-c2cc(NC(=O)c3ccc(C)c(Nc4nccc(-c5cccnc5)n4)c3)cc(C(F)(F)F)c2)cn1 [Nilotinib] + COc1cccc2cc(-c3nc([C@H]4CC[C@H](C(=O)O)CC4)n4ncnc(N)c34)[nH]c12 [OSI-027] (partner 0.5 µM)
relative viability: 0.184
--
Molecule: Cc1cn(-c2cc(NC(=O)c3ccc(C)c(Nc4nccc(-c5cccnc5)n4)c3)cc(C(F)(F)F)c2)cn1 [Nilotinib] + CCNC(=O)c1noc(-c2cc(C(C)C)c(O)cc2O)c1-c1ccc(CN2CCOCC2)cc1 [Luminespib] (partner 0.01 µM)
relative viability: 0.207
--
Molecule: Cc1cn(-c2cc(NC(=O)c3ccc(C)c(Nc4nccc(-c5cccnc5)n4)c3)cc(C(F)(F)F)c2)cn1 [Nilotinib] + C[C@]1(O)C[C@@H](c2nc(-c3ccc4ccc(-c5ccccc5)nc4c3)c3c(N)nccn32)C1 [Linsitinib] (partner 1 µM)
relative viability: 0.442
--
Molecule: Cc1cn(-c2cc(NC(=O)c3ccc(C)c(Nc4nccc(-c5cccnc5)n4)c3)cc(C(F)(F)F)c2)cn1 [Nilotinib] + CS(=O)(=O)CCNCc1ccc(-c2ccc3ncnc(Nc4ccc(OCc5cccc(F)c5)c(Cl)c4)c3c2)o1 [Lapatinib] (partner 2 µM)
relative viability: 1.05
--
Molecule: Cc1cn(-c2cc(NC(=O)c3ccc(C)c(Nc4nccc(-c5cccnc5)n4)c3)cc(C(F)(F)F)c2)cn1 [Nilotinib] + Cc1nc(Nc2ncc(C(=O)Nc3c(C)cccc3Cl)s2)cc(N2CCN(CCO)CC2)n1 [Dasatinib] (partner 0.075 µM)
relative viability: 0.294
--
Molecule: Cc1cn(-c2cc(NC(=O)c3ccc(C)c(Nc4nccc(-c5cccnc5)n4)c3)cc(C(F)(F)F)c2)cn1 [Nilotinib] + Cc1cc(Nc2cc(N3CCN(C)CC3)nc(Sc3ccc(NC(=O)C4CC4)cc3)n2)n[nH]1 [Tozasertib] (partner 0.1 µM)
relative viability: 0.155
--
Molecule: Cc1cn(-c2cc(NC(=O)c3ccc(C)c(Nc4nccc(-c5cccnc5)n4)c3)cc(C(F)(F)F)c2)cn1 [Nilotinib] + CS(=O)(=O)N1CCN(Cc2cc3nc(-c4cccc5[nH]ncc45)nc(N4CCOCC4)c3s2)CC1 [Pictilisib] (partner 1 µM)
relative viability: 0.577
--
Molecule: Cc1cn(-c2cc(NC(=O)c3ccc(C)c(Nc4nccc(-c5cccnc5)n4)c3)cc(C(F)(F)F)c2)cn1 [Nilotinib] + N=C(N)NC(=N)NCCc1ccccc1 [Phenformin] (partner 250 µM)
relative viability: 0.337

###

tested on: HCC-827; experiment: relative viability (nuclei count vs DMSO), 5 days (fraction); higher = more cells survive; conditions: first compound 0.2 µM
Note to self: class labels come from recorded relative viability, ranges listed here: bin 1 = under 0.2, bin 2 = from 0.2 up to 0.9, bin 3 = 0.9 and over

Compound: CN1CCN(CCOc2cc(OC3CCOCC3)c3c(Nc4c(Cl)ccc5c4OCO5)ncnc3c2)CC1 [Saracatinib] + CC1(C)CCC(c2ccc(Cl)cc2)=C(CN2CCN(c3ccc(C(=O)NS(=O)(=O)c4ccc(N[C@H](CCN5CCOCC5)CSc5ccccc5)c(S(=O)(=O)C(F)(F)F)c4)cc3)CC2)C1 [Navitoclax] (partner 0.5 µM)
Class name: bin 2
--
Compound: CCNC(=O)c1noc(-c2cc(C(C)C)c(O)cc2O)c1-c1ccc(CN2CCOCC2)cc1 [Luminespib] + O=C(c1cc(Cc2n[nH]c(=O)c3ccccc23)ccc1F)N1CCN(C(=O)C2CC2)CC1 [Olaparib] (partner 8 µM)
Class name: bin 1
--
Compound: CN1CCN(CCOc2cc(OC3CCOCC3)c3c(Nc4c(Cl)ccc5c4OCO5)ncnc3c2)CC1 [Saracatinib] + Cc1cc(Nc2cc(N3CCN(C)CC3)nc(Sc3ccc(NC(=O)C4CC4)cc3)n2)n[nH]1 [Tozasertib] (partner 0.1 µM)
Class name: bin 2
--
Compound: Cc1csc(=NC2CCCCC2)n1/N=C/c1ccc(O)c(O)c1O [MIM1] + COc1cc2c(Oc3ccc(NC(=O)C4(C(=O)Nc5ccc(F)cc5)CC4)cc3F)ccnc2cc1OCCCN1CCOCC1 [Foretinib] (partner 0.25 µM)
Class name: bin 3
--
Compound: Cc1csc(=NC2CCCCC2)n1/N=C/c1ccc(O)c(O)c1O [MIM1] + CCNC(=O)c1noc(-c2cc(C(C)C)c(O)cc2O)c1-c1ccc(CN2CCOCC2)cc1 [Luminespib] (partner 0.01 µM)
Class name: bin 2
--
Compound: CCNC(=O)c1noc(-c2cc(C(C)C)c(O)cc2O)c1-c1ccc(CN2CCOCC2)cc1 [Luminespib] + N=C(N)NC(=N)NCCc1ccccc1 [Phenformin] (partner 250 µM)
Class name: bin 1
--
Compound: CCNC(=O)c1noc(-c2cc(C(C)C)c(O)cc2O)c1-c1ccc(CN2CCOCC2)cc1 [Luminespib] + Cc1nc(NC(=O)N2CCC[C@H]2C(N)=O)sc1-c1ccnc(C(C)(C)C(F)(F)F)c1 [Alpelisib] (partner 2 µM)
Class name: bin 3
--
Compound: Cc1csc(=NC2CCCCC2)n1/N=C/c1ccc(O)c(O)c1O [MIM1] + CS(=O)(=O)N1CCN(Cc2cc3nc(-c4cccc5[nH]ncc45)nc(N4CCOCC4)c3s2)CC1 [Pictilisib] (partner 1 µM)
Class name: bin 3

###

Listing: relative viability of selected compounds
system: EBC-1; assay: relative viability (nuclei count vs DMSO), 5 days (fraction); higher = more cells survive; conditions: first compound 2 µM

Compound: CN1CCN(CCOc2cc(OC3CCOCC3)c3c(Nc4c(Cl)ccc5c4OCO5)ncnc3c2)CC1 [Saracatinib] + COc1cc2c(Oc3ccc(NC(=O)C4(C(=O)Nc5ccc(F)cc5)CC4)cc3F)ccnc2cc1OCCCN1CCOCC1 [Foretinib] (partner 0.25 µM)
relative viability: 0.106
--
Compound: CN1CCN(CCOc2cc(OC3CCOCC3)c3c(Nc4c(Cl)ccc5c4OCO5)ncnc3c2)CC1 [Saracatinib] + O=C(c1cc(Cc2n[nH]c(=O)c3ccccc23)ccc1F)N1CCN(C(=O)C2CC2)CC1 [Olaparib] (partner 8 µM)
relative viability: 0.734
